Assay details: clinical
Condition info: human, in vivo
Quantity kind: inter-compartmental clearance (Q/F) (L/h)

INSERT INTO measurements (compound, unit_abbrev, reported) VALUES
  ('CCCOc1ccc(S(=O)(=O)NCCC2CCCN2C)cc1-c1nc2c(CCC)nn(C)c2c(=O)[nH]1 (stereo not shown) [udenafil]', 'L/h', 21.1);

---

Assay details: clinical
Condition info: human, in vivo
Protocol: The population PK analysis was performed using a non-linear mixed effects modeling approach. This approach estimates the typical value of parameters and their variances. […] The robustness of the final model was assessed in PDxPOP® 5 by bootstrap re-sampling (n=1000). […] One- and two-compartment models with oral absorption input were evaluated using initial estimates obtained from the literature as described above, and were explored to determine the potential structure of the model. […]
Quantity kind: Vd/F (L)

INSERT INTO results (compound, unit_abbrev, reported) VALUES
  ('CCCOc1ccc(S(=O)(=O)NCCC2CCCN2C)cc1-c1nc2c(CCC)nn(C)c2c(=O)[nH]1 (stereo not shown)', 'L', 74);

Cited source for all entries: patent US10653698B2
